Data origin: paper PMC6308234

Target: T1, DENV-1 nonstructural protein 1 (NS1), recombinant (dengue virus serotype 1 (DENV-1))
T1 chain: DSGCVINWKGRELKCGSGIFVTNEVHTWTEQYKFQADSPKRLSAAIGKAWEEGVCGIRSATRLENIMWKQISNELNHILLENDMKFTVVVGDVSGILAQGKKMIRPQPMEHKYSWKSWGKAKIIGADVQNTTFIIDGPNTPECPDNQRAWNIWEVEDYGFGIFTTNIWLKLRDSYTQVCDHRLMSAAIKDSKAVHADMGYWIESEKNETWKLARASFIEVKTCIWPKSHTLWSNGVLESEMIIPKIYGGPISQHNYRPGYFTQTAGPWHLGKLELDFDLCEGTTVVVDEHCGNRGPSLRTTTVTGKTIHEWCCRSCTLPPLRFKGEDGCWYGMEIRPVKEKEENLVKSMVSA
Experiment: SPR; NS1 immobilized
measurement-name: koff

See these solved cases before continuing.
INSERT INTO measurements (binder, measurement_name, measured_result) VALUES
  ('sdAb DD5 (VHH, source: E. coli Turner (DE3), pET22b, periplasmic, purified (Ni-Sepharose, SEC)) VHH: EVQLQASGGGLVQAGGSLRLSCAASGRAFSSETMGWFRQAPGKEREFVAAIWRIGGSTYNTDYADSVKGRFAISADRAKNTVDLQMNTLKPEDTAVYYCAGKMRGRSVNLYDYDYWGQGTQVTVSS', 'koff', '0.000383 s⁻¹'),
  ('sdAb DC4 (VHH, source: E. coli Turner (DE3), pET22b, periplasmic, purified (Ni-Sepharose, SEC)) VHH: EVQLQASGGGLVQAGGSLRLSCAASERTFSHYFVGWFRQAPGKEREFVARITWSGSNVEYEDAVKDRFTLSSDNAKNTVYLHMNSLKPEDTAVYYCAAANTIWTPTIRDYNVWGQGTQVTVSS', 'koff', '0.00889 s⁻¹');

Provide only the value of recorded koff for sdAb DH12 (VHH, source: E. coli Turner (DE3), pET22b, periplasmic, purified (Ni-Sepharose, SEC)) VHH: EVQLVESGGGSVQAGGSLRLSCAASERTFSYYFMGWFRQAPGKEREWVARIRWNGDGADYTDAVKDRFTISSDHAKNTVYLQMNSLKPEDTAVYYCAAANSIWKPTTRDYNYWGQGTQVSVSS
0.00658 s⁻¹

Provide only the value of recorded koff for sdAb DD9 (VHH, source: E. coli Turner (DE3), pET22b, periplasmic, purified (Ni-Sepharose, SEC)) VHH: EVQLQASGGGLVQAGGSLRVSCAASGIAFTNYALAWYRQPPGKQREWVATVGVLGGTKYADSVKGRFAISRDNAKNTVILQMNSLKPVDTAVYFCAAVEWSNGRYYWDSWGQGTQVTVSA
0.00141 s⁻¹
